Each entry below carries its recorded Ki.
Biological target: Cannabinoid receptor 1 (Homo sapiens, UniProt P21554)
Sequence (P21554 whole entry): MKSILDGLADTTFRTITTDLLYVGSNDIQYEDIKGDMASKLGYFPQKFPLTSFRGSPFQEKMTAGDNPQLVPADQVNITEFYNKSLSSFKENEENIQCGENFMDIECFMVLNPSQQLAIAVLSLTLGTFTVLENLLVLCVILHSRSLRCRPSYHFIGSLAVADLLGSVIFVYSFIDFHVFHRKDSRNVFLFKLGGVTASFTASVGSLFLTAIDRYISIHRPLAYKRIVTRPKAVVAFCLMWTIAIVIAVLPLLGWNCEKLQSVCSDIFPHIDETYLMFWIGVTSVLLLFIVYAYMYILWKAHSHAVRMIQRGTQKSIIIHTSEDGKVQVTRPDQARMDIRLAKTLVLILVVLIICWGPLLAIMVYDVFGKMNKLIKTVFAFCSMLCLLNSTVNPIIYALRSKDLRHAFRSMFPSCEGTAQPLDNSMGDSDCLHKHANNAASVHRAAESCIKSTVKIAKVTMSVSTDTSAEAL
Reported metric: Ki (nM)

[
  {
    "Mol smiles": "CCCCCCC(C)(C)c1ccc(-c2c(C)cccc2C)c(O)c1",
    "Unit of measure": "nM",
    "Limit sign": "=",
    "Recorded result": 1.7
  },
  {
    "Mol smiles": "CCCCCCC(C)(C)c1ccc(-c2cc(C)cc(C)c2)c(CN)c1",
    "Unit of measure": "nM",
    "Limit sign": "=",
    "Recorded result": 1500
  },
  {
    "Mol smiles": "Cc1cc(C)cc(-c2ccc(C(C)(C)CCCO)cc2O)c1",
    "Unit of measure": "nM",
    "Limit sign": "=",
    "Recorded result": 1100
  },
  {
    "Mol smiles": "CCCCCCC(C)(C)c1ccc(-c2ccc(C#N)cc2)c(O)c1",
    "Unit of measure": "nM",
    "Limit sign": ">",
    "Recorded result": 1000
  },
  {
    "Mol smiles": "CCCCCCC(C)(C)c1ccc(-c2ccc(C)c(C)c2)c(O)c1",
    "Unit of measure": "nM",
    "Limit sign": "=",
    "Recorded result": 600
  },
  {
    "Mol smiles": "CCCCCCC(C)(C)c1ccc(-c2cc(C)ccc2C)c(O)c1",
    "Unit of measure": "nM",
    "Limit sign": "=",
    "Recorded result": 4.6
  }
]

====

// each record: one item and its Ki for Cannabinoid receptor 1 (Homo sapiens, UniProt P21554)
Reported metric: Ki (µM)

[
  {
    "Mol smiles": "CCCCCCC(C)(C)c1ccc(-c2cc(C)cc(C)c2)c(C(N)=O)c1",
    "Reported metric": "Ki",
    "Limit sign": "=",
    "Recorded result": 0.37
  },
  {
    "Mol smiles": "Cc1cc(C)cc(-c2ccc(C(C)(C)C(=O)O)cc2O)c1",
    "Reported metric": "Ki",
    "Limit sign": ">",
    "Recorded result": 1
  },
  {
    "Mol smiles": "CCCCCCC(C)(C)c1ccc(-c2cc(C)cc(C)c2)c(N)c1",
    "Reported metric": "Ki",
    "Limit sign": "=",
    "Recorded result": 0.08
  },
  {
    "Mol smiles": "CCCCCCC(C)(C)c1ccc(-c2cc(C)cc(C)c2)c(C(=O)O)c1",
    "Reported metric": "Ki",
    "Limit sign": ">",
    "Recorded result": 1
  },
  {
    "Mol smiles": "CCCCCCC(C)(C)c1ccc(-c2cccc(C#N)c2)c(O)c1",
    "Reported metric": "Ki",
    "Limit sign": "=",
    "Recorded result": 0.027
  },
  {
    "Mol smiles": "CCCCCCC(C)(C)c1ccc(-c2cccc(C)c2C)c(O)c1",
    "Reported metric": "Ki",
    "Limit sign": "=",
    "Recorded result": 0.049
  },
  {
    "Mol smiles": "Cc1cc(C)cc(-c2ccc(C(C)(C)CCCCCO)cc2O)c1",
    "Reported metric": "Ki",
    "Limit sign": "=",
    "Recorded result": 0.039
  },
  {
    "Mol smiles": "CCCCCCC1(c2ccc(-c3cc(C)cc(C)c3)c(O)c2)CCCC1",
    "Reported metric": "Ki",
    "Limit sign": "=",
    "Recorded result": 0.0029
  },
  {
    "Mol smiles": "CCCCCCC(C)(C)c1ccc(-c2cc(C)cc(C)c2)c(CO)c1",
    "Reported metric": "Ki",
    "Limit sign": "=",
    "Recorded result": 0.36
  },
  {
    "Mol smiles": "CCCCCCC1(c2ccc(-c3cc(C)cc(C)c3)c(O)c2)CCCCC1",
    "Reported metric": "Ki",
    "Limit sign": "=",
    "Recorded result": 0.0018
  },
  {
    "Mol smiles": "COC(=O)C(C)(C)c1ccc(-c2cc(C)cc(C)c2)c(O)c1",
    "Reported metric": "Ki",
    "Limit sign": "=",
    "Recorded result": 0.16
  }
]

====

// each record: one item and its pKi for Cannabinoid receptor 2 (Homo sapiens, UniProt P34972)
pKi: −log10 of the molar value.
Reported metric: pKi

[
  {
    "Mol smiles": "CNC(=O)CCC(C)(C)c1ccc(-c2cc(C)cc(C)c2)c(O)c1",
    "Reported metric": "pKi",
    "Limit sign": "=",
    "Recorded result": 6.85
  },
  {
    "Mol smiles": "CCCCCCC(C)(C)c1ccc(-c2cccc(C)c2C)c(O)c1",
    "Reported metric": "pKi",
    "Limit sign": "=",
    "Recorded result": 7.70
  },
  {
    "Mol smiles": "CCCCCCC(C)(C)c1ccc(-c2cc(C)cc(C)c2)c(CN)c1",
    "Reported metric": "pKi",
    "Limit sign": "=",
    "Recorded result": 6.42
  },
  {
    "Mol smiles": "CNC(=O)CCCCC(C)(C)c1ccc(-c2cc(C)cc(C)c2)c(O)c1",
    "Reported metric": "pKi",
    "Limit sign": "=",
    "Recorded result": 7.41
  },
  {
    "Mol smiles": "CCCCCCC(C)(C)c1ccc(-c2cccc(C#N)c2)c(O)c1",
    "Reported metric": "pKi",
    "Limit sign": "=",
    "Recorded result": 7.35
  },
  {
    "Mol smiles": "CCCCCCC(C)(C)c1ccc(-c2ccc(OC)c(OC)c2)c(O)c1",
    "Reported metric": "pKi",
    "Limit sign": "=",
    "Recorded result": 5.77
  },
  {
    "Mol smiles": "COC(=O)CCCCC(C)(C)c1ccc(-c2cc(C)cc(C)c2)c(O)c1",
    "Reported metric": "pKi",
    "Limit sign": "=",
    "Recorded result": 7.85
  },
  {
    "Mol smiles": "Cc1cc(C)cc(-c2ccc(C(C)(C)C(=O)O)cc2O)c1",
    "Reported metric": "pKi",
    "Limit sign": "<",
    "Recorded result": 6.00
  },
  {
    "Mol smiles": "Cc1cc(C)cc(-c2ccc(C(C)(C)CCCCC(=O)O)cc2O)c1",
    "Reported metric": "pKi",
    "Limit sign": "<",
    "Recorded result": 6.00
  },
  {
    "Mol smiles": "CCCCCCC(C)(C)c1ccc(-c2cc(C)ccc2C)c(O)c1",
    "Reported metric": "pKi",
    "Limit sign": "=",
    "Recorded result": 8.18
  },
  {
    "Mol smiles": "CCCCCCC(C)(C)c1ccc(-c2ccccc2OC)c(O)c1",
    "Reported metric": "pKi",
    "Limit sign": "=",
    "Recorded result": 9.00
  }
]

====

Molecular target: Cannabinoid receptor 1 (Homo sapiens, UniProt P21554)
pKi: −log10 of the molar value.
Each entry below carries its recorded pKi.

[
  {
    "Mol smiles": "CCCCCCC(C)(C)c1ccc(-c2cc(C)cc(C)c2)c(C(=O)NC(C)C)c1",
    "Target under test": "Cannabinoid receptor 1 (Homo sapiens, UniProt P21554)",
    "pKi": "< 6.00"
  },
  {
    "Mol smiles": "CNC(=O)C(C)(C)c1ccc(-c2cc(C)cc(C)c2)c(O)c1",
    "Target under test": "Cannabinoid receptor 1 (Homo sapiens, UniProt P21554)",
    "pKi": "< 6.00"
  },
  {
    "Mol smiles": "CCCCCCC(C)(C)c1ccc(-c2cc(C)cc(C)c2)cc1",
    "Target under test": "Cannabinoid receptor 1 (Homo sapiens, UniProt P21554)",
    "pKi": "< 4.52"
  },
  {
    "Mol smiles": "CCCCCCC(C)(C)c1ccc(-c2cccc(C(=O)O)c2)c(O)c1",
    "Target under test": "Cannabinoid receptor 1 (Homo sapiens, UniProt P21554)",
    "pKi": "< 6.00"
  },
  {
    "Mol smiles": "Cc1cc(C)cc(-c2ccc(C(C)(C)CCCCC(=O)O)cc2O)c1",
    "Target under test": "Cannabinoid receptor 1 (Homo sapiens, UniProt P21554)",
    "pKi": "< 6.00"
  }
]

====

// each record: one item and its Ki for Cannabinoid receptor 2 (Homo sapiens)

[
  {
    "Mol smiles": "Cc1cc(C)cc(-c2ccc(C(C)(C)CCCCCO)cc2O)c1",
    "Limit sign": "=",
    "Ki [nM]": 3.6
  },
  {
    "Mol smiles": "CCCCCCC(C)(C)c1ccc(-c2cc(C)cc(C)c2)c(OC)c1",
    "Limit sign": "=",
    "Ki [nM]": 34
  },
  {
    "Mol smiles": "CCCCCCC(C)(C)c1ccc(-c2cc(C)cc(C)c2)c(CN2CCOCC2)c1",
    "Limit sign": "=",
    "Ki [nM]": 660
  },
  {
    "Mol smiles": "CCCCCCC(C)(C)c1ccc(-c2cc(C)cc(C)c2)c(C(=O)O)c1",
    "Limit sign": ">",
    "Ki [nM]": 1000
  },
  {
    "Mol smiles": "CNC(=O)C(C)(C)c1ccc(-c2cc(C)cc(C)c2)c(O)c1",
    "Limit sign": ">",
    "Ki [nM]": 1000
  },
  {
    "Mol smiles": "CCCCCCC(C)(C)c1ccc(-c2cc(C)cc(C)c2)c(N)c1",
    "Limit sign": "=",
    "Ki [nM]": 51
  },
  {
    "Mol smiles": "COC(=O)C(C)(C)c1ccc(-c2cc(C)cc(C)c2)c(O)c1",
    "Limit sign": "=",
    "Ki [nM]": 16
  },
  {
    "Mol smiles": "CCCCCCC1(c2ccc(-c3cc(C)cc(C)c3)c(O)c2)CCCCC1",
    "Limit sign": "=",
    "Ki [nM]": 1.7
  },
  {
    "Mol smiles": "CCCCCCC(C)(C)c1ccc(-c2cc(C)cc(C)c2)c(COC(=O)CN2CCOCC2)c1",
    "Limit sign": "=",
    "Ki [nM]": 0.81
  },
  {
    "Mol smiles": "COC(=O)CCC(C)(C)c1ccc(-c2cc(C)cc(C)c2)c(O)c1",
    "Limit sign": "=",
    "Ki [nM]": 5.6
  },
  {
    "Mol smiles": "CCCCCCC(C)(C)c1ccc(-c2ccc(N)cc2)c(O)c1",
    "Limit sign": "=",
    "Ki [nM]": 1000
  },
  {
    "Mol smiles": "CCCCCCC(C)(C)c1ccc(-c2cc(C)cc(C)c2)c(O)c1",
    "Limit sign": "=",
    "Ki [nM]": 2.3
  },
  {
    "Mol smiles": "CCCCCCC(C)(C)c1ccc(-c2cccnc2)c(O)c1",
    "Limit sign": "=",
    "Ki [nM]": 20
  },
  {
    "Mol smiles": "CCCCCCC(C)(C)c1ccc(-c2ccccc2N)c(O)c1",
    "Limit sign": "=",
    "Ki [nM]": 17
  },
  {
    "Mol smiles": "CCCCCCC(C)(C)c1ccc(-c2cccc(C(=O)O)c2)c(O)c1",
    "Limit sign": ">",
    "Ki [nM]": 1000
  },
  {
    "Mol smiles": "CCCCCCC(C)(C)c1ccc(-c2cccc(N)c2)c(O)c1",
    "Limit sign": "=",
    "Ki [nM]": 44
  },
  {
    "Mol smiles": "CCCCCCC(C)(C)c1ccc(-c2cc(C)cc(C)c2)c(C(N)=O)c1",
    "Limit sign": "=",
    "Ki [nM]": 320
  },
  {
    "Mol smiles": "CCCCCCC(C)(C)c1ccc(-c2cc(C)cc(C)c2)c(CO)c1",
    "Limit sign": "=",
    "Ki [nM]": 480
  },
  {
    "Mol smiles": "CCCCCCC(C)(C)c1ccc(-c2ccc(C)c(C)c2)c(O)c1",
    "Limit sign": "=",
    "Ki [nM]": 830
  },
  {
    "Mol smiles": "CCCCCCC1(c2ccc(-c3cc(C)cc(C)c3)c(O)c2)CC1",
    "Limit sign": "=",
    "Ki [nM]": 55
  },
  {
    "Mol smiles": "CCCCCCC(C)(C)c1ccc(-c2cccc(OC)c2)c(O)c1",
    "Limit sign": "=",
    "Ki [nM]": 580
  },
  {
    "Mol smiles": "CCCCCCC(C)(C)c1ccc(-c2ccc(C#N)cc2)c(O)c1",
    "Limit sign": ">",
    "Ki [nM]": 1000
  }
]
